B1: RHOBTB2 (parent)
chain: LYTGELDENERDLMHIAHIAELLE

- Variants of: B1
- ASSAY_INFO: protein stability index of a GFP-peptide fusion (GPS, HEK-293T) (PSI 1-6); higher = more stable;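 further: lentivirally expressed fusions sorted by FACS into six bins by GFP to DsRed ratio, PSI derived from sequencing read proportions per bin multiplied by bin number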
- CONDITION_LABEL: c terminus: a fixed tail appended

MUTATIONS	protein stability index
H18T	1.95
R11T	2.14
G4K	1.89
E10V	1.89
E21F	1.74
G4F	1.93
L23F	2.41
N9L	1.51
D7N	2.17
D12T	2.43
L1Q	3.08

Where do the numbers come from? From the supplement of paper PMC10567573.
